The reported numbers originate from patent US10034886B2.

The entries below come with measured pEC50 values attached.
molecular target: GLP-1R (Homo sapiens, UniProt P43220); construct: host or cells: GLP-1R CRE-bla CHO-K1 cells; experiment: EC20 GLP-1(9-36) PAM cAMP assay: dose response of compound in the presence of fixed concentration of GLP-1(9-36); format: cell-based; conditions: dose response of compound in presence of fixed concentration of GLP-1(9-36), GLP-1R CRE-bla CHO-K1 cells, read-out: EC20 GLP-1(9-36) PAM EC50
Sequence (P43220 24-463): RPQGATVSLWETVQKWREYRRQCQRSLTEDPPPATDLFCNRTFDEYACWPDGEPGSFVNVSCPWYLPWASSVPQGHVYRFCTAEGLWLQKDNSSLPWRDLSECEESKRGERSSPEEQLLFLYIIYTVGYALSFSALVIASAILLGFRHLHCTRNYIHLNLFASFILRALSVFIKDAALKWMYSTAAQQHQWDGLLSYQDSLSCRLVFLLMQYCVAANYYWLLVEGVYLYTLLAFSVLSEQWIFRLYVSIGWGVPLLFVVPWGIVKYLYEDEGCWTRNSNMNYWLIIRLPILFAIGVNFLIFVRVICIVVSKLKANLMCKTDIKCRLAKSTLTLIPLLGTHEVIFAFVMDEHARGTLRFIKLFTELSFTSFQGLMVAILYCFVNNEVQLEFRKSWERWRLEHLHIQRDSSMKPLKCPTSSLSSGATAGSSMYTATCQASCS
Sequence (P01275 100-127 partner limits assumed): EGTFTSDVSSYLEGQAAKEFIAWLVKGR
pEC50: −log10 of the molar value.

Notebook: CCCCCCCOc1ccc(-c2cnc(-c3ccc(C[C@H](NC(=O)c4ccc(C(C)(C)C)cc4)C(=O)NCC(CC4CCOCC4)C(=O)O)cc3)nc2)cc1 (some centres unmarked) , pEC50 read as 5.00 to 5.30

More entries:
Notebook: CC[C@H]1CC[C@H](c2ccc(-c3cnc(-c4ccc(C[C@H](NC(=O)c5ccc(C(C)C)cc5)C(=O)N5CC(C(=O)O)C5)cc4)nc3)cc2)CC1 , pEC50 read as > 6.10

Notebook: CCCCCCCOc1ccc(-c2cnc(-c3ccc(C[C@H](NC(=O)c4ccc(OCC)cc4)C(=O)N4CC[C@H](C(=O)O)C4)cc3)nc2)cc1 , pEC50 read as 5.30 to 5.60

Notebook: CC(C)COc1ccc(-c2cnc(-c3ccc(C[C@H](NC(=O)c4ccc(C(C)(C)C)s4)C(=O)NC(C(=O)O)C(O)c4ccccc4)cc3)nc2)cc1 (some centres unmarked) , pEC50 read as 5.00 to 5.30

Notebook: CCCCCCCOc1ccc(-c2cnc(-c3ccc(C[C@H](NC(=O)c4ccc(C(C)(C)C)cc4)C(=O)N[C@@H](CC(=O)N(C)C)C(=O)O)cc3)nc2)cc1 , pEC50 read as > 6.10

Notebook: CCOc1cc(-c2cnc(-c3ccc(C[C@H](NC(=O)c4ccc(C(C)(C)C)s4)C(=O)N[C@H](C)C(=O)O)cc3)nc2)ccc1OC(F)(F)F , pEC50 read as 5.60 to 6.10

Notebook: CCCCCCCOc1ccc(-c2cnc(-c3ccc(C[C@H](NC(=O)c4ccc(C(C)(C)C)cc4)C(=O)N[C@@H](CC(=O)O)C(=O)N(C)C)cc3)nc2)cc1 , pEC50 read as 5.60 to 6.10

Notebook: CCCCCCCOc1ccc(-c2cnc(-c3ccc(C[C@H](NC(=O)c4ccc(C(C)(C)C)cc4)C(=O)NC(C(=O)O)C(O)c4ccccc4)cc3)nc2)cc1 (some centres unmarked) [Compound 569] , pEC50 read as > 6.10

Notebook: Cc1ccc(C(O)c2ccc(-c3cnc(-c4ccc(C[C@H](NC(=O)c5ccc(C(C)(C)C)s5)C(=O)N[C@H](C)C(=O)O)cc4)nc3)cc2)cc1 (some centres unmarked) , pEC50 read as 5.00 to 5.30

Notebook: CCCCCCCOc1ccc(-c2cnc(-c3ccc(C[C@H](NC(=O)c4ccc(C(C)(C)C)s4)C(=O)NCC4CCNC4)cc3)nc2)cc1 (some centres unmarked) , pEC50 read as 5.60 to 6.10

Notebook: CCCCCCCOc1ccc(-c2cnc(-c3ccc(C[C@H](NC(=O)c4cc5cc(OC)ccc5[nH]4)C(=O)N[C@H](C)C(=O)O)cc3)nc2)cc1 , pEC50 read as 5.30 to 5.60
